The measurements presented in this section are drawn from patent US20100151021A1.

# PROCEDURE_TEXT: Solubility of Melperone HCl in media
# Assay type: physicochemical
# SETTINGS: phosphate buffer, aqueous buffer; pH 7.0 (phosphate)
OUTCOME_MEASURE: solubility

Item: CC1CCN(CCCC(=O)c2ccc(F)cc2)CC1.Cl [Melperone HCl] | solubility: > 100 mg/mL

====

# PROCEDURE_TEXT: Solubility of Melperone HCl in media
# Type: physicochemical
# SETTINGS: phosphate buffer, aqueous buffer; pH 7.8 (phosphate)
OUTCOME_MEASURE: solubility (mg/mL)
One number for each entry, in mg/mL.

Item: CC1CCN(CCCC(=O)c2ccc(F)cc2)CC1.Cl [Melperone HCl] | solubility: 25.6
